test: chemical genetic growth profiling, strain panel (AID 1159580);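 also: tested at 20 µM; growth read once vehicle control cultures reached saturation at 30 °C; 1 = growth at the plate median or of vehicle wells; lower values mean less growth of the strain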; conditions: S. cerevisiae deletion strains, growth OD, locus YBR009C, strain hhf1, active compounds read low
The campaign covered roughly 5,500 compounds. About 2,000 (36%) were called active. Another 18% or so got no clear call; they are omitted. The list shows a part of the results.
Listing: normalized growth of selected compounds
MEASURED_QUANTITY: normalized growth

[[record]]
compound = "COc1ccc2c(c1)CCC1C2CC[C@@]2(C)C1CC[C@@H]2O (some centres undefined)"
result = 0.76

[[record]]
compound = "O=C(Cc1cccs1)NC1C(=O)N2C(C(=O)[O-])=C(C[n+]3ccccc3)CSC12 (centres undefined)"
result = 0.981

[[record]]
compound = "CN(C)c1ccc2nc3ccc(=[N+](C)C)cc-3sc2c1"
result = 1.04

[[record]]
compound = "Cc1[nH]ccc2c1[nH]c1cc(=O)ccc12"
result = 1.01

[[record]]
compound = "CCC(c1ccc(O)cc1)C(CC)c1ccc(O)cc1 (centres undefined)"
result = 0.77

[[record]]
compound = "OCC(O)C(O)C(O)C(O)C(O)CO (centres undefined)"
result = 1

[[record]]
compound = "O=c1c(O)c(-c2ccc(O)c(O)c2)oc2cc(O)cc(O)c12"
result = 0.919

[[record]]
compound = "C[C@]12C=CC(=O)C=C1CCC1C2[C@@H](O)C[C@@]2(C)C1CC[C@]2(O)C(=O)COP(=O)(O)O (some centres undefined)"
result = 1

[[record]]
compound = "Cc1cc(C2CCCCC2)n(O)c(=O)c1"
result = 0.0705

[[record]]
compound = "NC(=O)CN1CCCC1=O"
result = 1

[[record]]
compound = "COc1cccc2c(C)cc(=O)[nH]c12"
result = 0.938

[[record]]
compound = "COc1cc(OC)c2c(=O)c(O)c(-c3ccc(OC)c(OC)c3)oc2c1"
result = 0.903

[[record]]
compound = "CC(C)[N+](C)(CCC(C(N)=O)(c1ccccc1)c1ccccc1)C(C)C"
result = 0.994

[[record]]
compound = "COc1ccc2c(c1)CCC1C2CCC2(C)C1C[C@@H](O)C2O (some centres undefined)"
result = 0.917

[[record]]
compound = "O=C1[O][Bi][O]c2ccccc21"
result = 0.981

[[record]]
compound = "NC(=O)NCCCC(N)C(=O)O (centres undefined)"
result = 1.05

[[record]]
compound = "CC1O[C@@H](Oc2c(-c3ccc(O)c(O)c3)oc3cc(O)cc(O)c3c2=O)[C@H](O)[C@H](O)[C@H]1O (some centres undefined)"
result = 0.99

[[record]]
compound = "OC1CC2CCCC(C1)N2Cc1ccccc1 (centres undefined)"
result = 0.989

[[record]]
compound = "COc1ccc(-c2oc3c(CC=C(C)C)c(O[C@@H]4O[C@H](CO)[C@@H](O)[C@H](O)[C@H]4O)cc(O)c3c(=O)c2O[C@@H]2O[C@@H](C)[C@H](O)[C@@H](O)[C@H]2O)cc1"
result = 1.03


Attribution: PubChem BioAssay AID1159580
